Taken from patent US9315522B2.

# test.system: S. aureus ATCC 29213 FabI (Staphylococcus aureus, UniProt Q6GI75)
# test.name: Staphylococcus aureus FabI enzyme inhibition assay
# Type: biochemical
# test.settings: read-out: FabI (300.235) IC50 (converted)
readout.type: IC50 (µM)

Some entries whose results are on file:
Look up IC50 of O=C1Nc2ncc(/C=C/C(=O)N3CC4C=C(c5ccncc5)CC4C3)cc2CO1 (stereo not shown) [compound 55] and report it.
0.927

Look up IC50 of CC(C)C1Oc2cc(/C=C/C(=O)N3CC4C=C(c5nccs5)CC4C3)cnc2NC1=O (stereo not shown) [compound 64] and report it.
0.825

[a] O=C1Nc2ncc(/C=C/C(=O)N3CC4C=C(c5ccccc5)CC4C3)cc2CN2CCNCC12 (stereo not shown) [compound 79]
[b] O=C1Nc2ncc(/C=C/C(=O)N3CC4C=C(c5ccccc5)CC4C3)cc2CO1 (stereo not shown) [compound 51]
Of the pair a and b , name the member with the lesser recorded IC50. Write down the label of the entry you select.
b

[P] O=C1CNCc2cc(/C=C/C(=O)N3CC4C=C(c5ccsc5)CC4C3)cnc2N1 (stereo not shown) [compound 40]
[Q] COc1cncc(C(=O)Nc2ccc(/C=C/C(=O)N3CC4C=C(c5ccncc5)CC4C3)cn2)c1 (stereo not shown) [compound 30]
Of the pair P and Q , name the member with the lesser recorded IC50. Write down the label of the entry you select.
P

[a] Cc1cncc(C(=O)Nc2ccc(/C=C/C(=O)N3CC4C=C(c5ccncc5)CC4C3)cn2)c1 (stereo not shown) [compound 8]
[b] O=C(Nc1ccc(/C=C/C(=O)N2CC3C=C(c4ccccc4)CC3C2)cn1)c1ccncc1 (stereo not shown) [compound 12]
[c] Cc1cc(NC(=O)c2cccnc2)ncc1/C=C/C(=O)N1CC2C=C(c3ccccc3)CC2C1 (stereo not shown) [compound 26]
Rank ascending by IC50. Use the labels to give the ranking in the order requested.
a, b, c
(a: 1.24 µM, b: 2.04 µM, c: 10.2 µM)

----------
# test.system: S. aureus ATCC 29213 FabI (Staphylococcus aureus, UniProt Q6GI75)
# test.name: Staphylococcus aureus FabI enzyme inhibition assay
# Format: biochemical
# test.settings: read-out: FabI (300.235) IC50 (converted)
readout.type: IC50 (nM)

# return IC50 for O=C1Nc2ncc(/C=C/C(=O)N3CC4C=C(c5ccccc5)CC4C3)cc2CN2CCSCC12 (centres unmarked) , test system: S. aureus ATCC 29213 FabI (Staphylococcus aureus, UniProt Q6GI75)
1180

# return IC50 for Cc1nc(N)ccc1/C=C/C(=O)N1CC2C=C(c3ccccc3)CC2C1 (centres unmarked) , test system: S. aureus ATCC 29213 FabI (Staphylococcus aureus, UniProt Q6GI75)
6770

# return IC50 for CC(=O)N1CCN2C(=O)c3cc(/C=C/C(=O)N4CC5C=C(c6ccccc6)CC5C4)cnc3NC(=O)C2C1 (centres unmarked) , test system: S. aureus ATCC 29213 FabI (Staphylococcus aureus, UniProt Q6GI75)
1230

# return IC50 for O=C1CNC(=O)c2cc(/C=C/C(=O)N3CC4C=C(c5ccccc5)CC4C3)cnc2N1 (centres unmarked) , test system: S. aureus ATCC 29213 FabI (Staphylococcus aureus, UniProt Q6GI75)
651

[A] COc1nc(NC(C)=O)ccc1/C=C/C(=O)N1CC2C=C(c3ccccc3)CC2C1 (centres unmarked)
[B] CN1CC(=O)Nc2ncc(/C=C/C(=O)N3C[C@@H]4CN(c5ccccc5)C[C@@H]4C3)cc2C1 [compound 60]
Of the pair A and B , name the member with the lesser recorded IC50. Write down the label of the entry you select.
B
(B: 2180 nM, A: 15500 nM)

----------
# test.name: Thermodynamic solubility (pH solubility profiling)
# Assay type: physicochemical
# test.settings: aqueous buffer, thermodynamic from solid, Buffer pH 7.4, ambient temperature
readout.type: solubility thermodynamic at 4 days (µg/mL)

[A] O=C1Nc2ncc(/C=C/C(=O)N3CC4C=C(c5ccccc5)CC4C3)cc2CN2CCNCC12 (stereo not shown) [compound 79]
[B] O=C1Nc2ncc(/C=C/C(=O)N3CC4C=C(c5nccs5)CC4C3)cc2CN2CCOCC12 (stereo not shown) [Cpd. No. 74]
Of the pair A and B , name the member with the lesser recorded solubility thermodynamic at 4 days. Write down the label of the entry you select.
A
(A: 10 µg/mL, B: 30 µg/mL)

----------
# test.name: Thermodynamic solubility (pH solubility profiling)
# Type: physicochemical
# test.settings: aqueous with cosolvent or surfactant or cyclodextrin, thermodynamic from solid, 20% HP-β-CD buffer pH 7.4, ambient temperature
Each entry below lists one item and its recorded solubility thermodynamic at 4 days value.

Look up solubility thermodynamic at 4 days of O=C1Nc2ncc(/C=C/C(=O)N3CC4C=C(c5nccs5)CC4C3)cc2CN2CCOCC12 (stereo not shown) [Cpd. No. 74] and report it.
> 1330 µg/mL

Look up solubility thermodynamic at 4 days of O=C1Nc2ncc(/C=C/C(=O)N3CC4C=C(c5ccccc5)CC4C3)cc2CN2CCNCC12 (stereo not shown) [compound 79] and report it.
> 4880 µg/mL

Look up solubility thermodynamic at 4 days of O=C(Nc1ccc(/C=C/C(=O)N2CC3C=C(c4ccncc4)CC3C2)cn1)c1cccnc1 (stereo not shown) [compound 9] and report it.
> 4940 µg/mL

Continuing:
Look up solubility thermodynamic at 4 days of O=C1CNCc2cc(/C=C/C(=O)N3CC4C=C(c5nccs5)CC4C3)cnc2N1 (stereo not shown) [compound 48] and report it.
> 2410 µg/mL

----------
# System: Staphylococcus aureus ATCC 29213
# test.name: Antibacterial susceptibility testing, IC90 determination (STA)
# Format: cell-based
# test.settings: Staphylococcus aureus, ATCC29213, Staphylococcus aureus ATCC 29213, broth microdilution, resazurin; read-out: STA (361.159) IC90
readout.type: IC90 (µg/mL)

Look up IC90 of O=C1COc2cc(/C=C/C(=O)N3CC4C=C(c5ccncc5)CC4C3)cnc2N1 (stereo not shown) and report it.
0.16

Look up IC90 of O=C1COCc2cc(/C=C/C(=O)N3CC4C=C(c5ccncc5)CC4C3)cnc2N1 (stereo not shown) and report it.
0.38

Look up IC90 of O=C1Nc2ncc(/C=C/C(=O)N3CC4C=C(c5ccsc5)CC4C3)cc2CN2CCOCC12 (stereo not shown) and report it.
0.17

Look up IC90 of Cn1nccc1C1=CC2CN(C(=O)/C=C/c3cnc4c(c3)CN3CCOCC3C(=O)N4)CC2C1 (stereo not shown) and report it.
1.67

Look up IC90 of CN1CCN2C(=O)c3cc(/C=C/C(=O)N4CC5C=C(c6ccccc6)CC5C4)cnc3NC(=O)C2C1 (stereo not shown) and report it.
0.45

[P] COC(=O)CCC(=O)Nc1ccc(/C=C/C(=O)N2CC3C=C(c4ccccc4)CC3C2)cn1 (stereo not shown)
[Q] O=C(Nc1ccc(/C=C/C(=O)N2CC3C=C(c4ccncc4)CC3C2)cn1)c1cccnc1 (stereo not shown)
Between the two listed entries P and Q , which has its IC90 at the higher number? Write down the label of the entry you select.
P

----------
# Test system: S. aureus
# test.name: Antibacterial susceptibility testing, IC90 determination with 10% human serum (STA + 10% HS)
# Type: cell-based, Staphylococcus aureus
# test.settings: Staphylococcus aureus, human serum at final concentration of 10%, read-out: STA + 10% HS (361.169) IC90
readout.type: IC90 (µg/mL)

Some entries whose results are on file:
# return IC90 for O=C1COCc2cc(/C=C/C(=O)N3CC4C=C(c5ccsc5)CC4C3)cnc2N1 (stereo not shown) , test system: S. aureus
0.23

# return IC90 for O=C1Nc2ncc(/C=C/C(=O)N3CC4C=C(c5ccsc5)CC4C3)cc2CN2CCOCC12 (stereo not shown) , test system: S. aureus
0.2

# return IC90 for CN1CC(=O)Nc2ncc(/C=C/C(=O)N3C[C@@H]4CN(c5ccccc5)C[C@@H]4C3)cc2C1 , test system: S. aureus
3.13

# return IC90 for O=C1Nc2ncc(/C=C/C(=O)N3CC4C=C(c5ccccc5)CC4C3)cc2CO1 (stereo not shown) , test system: S. aureus
0.71

[1] O=C1COCc2cc(/C=C/C(=O)N3CC4C=C(c5nccs5)CC4C3)cnc2N1 (stereo not shown)
[2] Cn1nccc1C1=CC2CN(C(=O)/C=C/c3cnc4c(c3)COCC(=O)N4)CC2C1 (stereo not shown)
[3] O=C1Nc2ncc(/C=C/C(=O)N3CC4C=C(c5ccccc5)CC4C3)cc2C(=O)N2CCNCC12 (stereo not shown)
[4] O=C(Cc1ccncc1)Nc1ccc(/C=C/C(=O)N2CC3C=C(c4ccccc4)CC3C2)cn1 (stereo not shown)
Rank ascending by IC90. Use the labels to give the ranking in the order requested.
1, 3, 2, 4
(1: 0.24 µg/mL, 3: 0.43 µg/mL, 2: 1.44 µg/mL, 4: 2.65 µg/mL)

[a] O=C1Nc2ncc(/C=C/C(=O)N3CC4C=C(c5ccncc5)CC4C3)cc2CO1 (stereo not shown)
[b] COC(=O)CCC(=O)Nc1ccc(/C=C/C(=O)N2CC3C=C(c4ccccc4)CC3C2)cn1 (stereo not shown)
Between the two listed entries a and b , which has its IC90 at the higher number? Write down the label of the entry you select.
b

[I] Cc1cncc(C(=O)Nc2ccc(/C=C/C(=O)N3CC4C=C(c5ccncc5)CC4C3)cn2)c1 (stereo not shown)
[II] O=C(Nc1ccc(/C=C/C(=O)N2CC3C=C(c4ccccc4)CC3C2)cn1)c1ccncc1 (stereo not shown)
Of the pair I and II , name the member with the lesser recorded IC90. Write down the label of the entry you select.
I
(I: 0.398 µg/mL, II: 1.58 µg/mL)

[I] O=C1COCc2cc(/C=C/C(=O)N3C[C@H]4CC(c5ccccc5)=C[C@H]4C3)cnc2N1 (single isomer, unassigned)
[II] Cc1cc(C(=O)Nc2ccc(/C=C/C(=O)N3CC4C=C(c5ccccc5)CC4C3)cn2)c(C)o1 (stereo not shown)
[III] CC(C)C1Oc2cc(/C=C/C(=O)N3CC4C=C(c5ccccc5)CC4C3)cnc2NC1=O (stereo not shown)
Order the records by IC90, with each subsequent value no larger than the one before. Use the labels to give the ranking in the order requested.
II, I, III
(II: 16.1 µg/mL, I: 0.7 µg/mL, III: 0.36 µg/mL)

[P] COc1cncc(C(=O)Nc2ccc(/C=C/C(=O)N3CC4C=C(c5ccnn5C)CC4C3)cn2)c1 (stereo not shown)
[Q] O=C1Nc2ncc(/C=C/C(=O)N3CC4C=C(c5ccncc5)CC4C3)cc2CN2CCOCC12 (stereo not shown)
Of the pair P and Q , name the member with the lesser recorded IC90. Write down the label of the entry you select.
Q
(Q: 0.38 µg/mL, P: 0.86 µg/mL)
